tested-on: Hexokinase HKDC1 (Homo sapiens) (UniProt Q2TB90)
Sequence (Q2TB90 whole entry, looked up): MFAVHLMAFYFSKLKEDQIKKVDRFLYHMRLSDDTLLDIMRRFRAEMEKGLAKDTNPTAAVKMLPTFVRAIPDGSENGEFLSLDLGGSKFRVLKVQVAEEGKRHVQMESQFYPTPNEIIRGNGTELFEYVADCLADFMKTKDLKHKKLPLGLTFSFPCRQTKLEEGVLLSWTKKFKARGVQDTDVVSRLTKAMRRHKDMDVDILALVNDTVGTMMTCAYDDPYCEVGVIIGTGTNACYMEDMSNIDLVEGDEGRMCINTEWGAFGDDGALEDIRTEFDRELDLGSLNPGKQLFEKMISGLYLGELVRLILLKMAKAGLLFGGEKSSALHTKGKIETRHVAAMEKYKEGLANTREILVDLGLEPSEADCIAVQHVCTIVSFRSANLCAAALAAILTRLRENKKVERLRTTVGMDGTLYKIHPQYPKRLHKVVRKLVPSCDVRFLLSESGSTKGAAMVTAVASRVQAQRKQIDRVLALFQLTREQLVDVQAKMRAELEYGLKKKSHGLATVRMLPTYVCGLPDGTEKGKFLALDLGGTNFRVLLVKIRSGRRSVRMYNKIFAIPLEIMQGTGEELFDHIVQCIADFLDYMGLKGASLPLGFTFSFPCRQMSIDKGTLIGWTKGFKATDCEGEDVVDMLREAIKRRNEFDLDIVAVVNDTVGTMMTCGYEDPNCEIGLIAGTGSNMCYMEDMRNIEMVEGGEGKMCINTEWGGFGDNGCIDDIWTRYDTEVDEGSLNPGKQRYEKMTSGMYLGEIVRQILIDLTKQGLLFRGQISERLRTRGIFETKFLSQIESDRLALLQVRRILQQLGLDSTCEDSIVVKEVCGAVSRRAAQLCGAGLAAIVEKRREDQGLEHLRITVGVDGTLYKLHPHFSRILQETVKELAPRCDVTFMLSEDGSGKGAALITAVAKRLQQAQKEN
test-protocol: compounds raising human HKDC1 activity – biochemical, single concentration, confirmation (AID 504708)
protocol-conditions: recombinant HKDC1, G6PDH/diaphorase resazurin fluorescence; at 20 µM; hits give low values
The other results are listed elsewhere or left out.
Class field: derived from inhibition; ranges band A = under -20%, band B = from -20% up to 20%, band C = 20% and over

- molecule: "O=C(CSc1cccc2cccnc12)N/N=C/c1cccnc1"
  assigned-category: "band A"
- molecule: "CCC(=C/c1sc2ccc3ccccc3c2[n+]1C)/C=C1\\Sc2ccc3ccccc3c2N1C"
  assigned-category: "band C"
- molecule: "CCOC(=O)C1=C(c2ccc(OC)cc2)C(=O)c2ccccc2C1=O"
  assigned-category: "band C"
- molecule: "CCc1ccc2c(c1)C1(NN=C(c3ccccc3)S1)C(=O)N2 (stereo unspecified)"
  assigned-category: "band B"
- molecule: "CC(=O)/C(=N\\Nc1ccc(Cl)cc1Cl)Sc1cccc2cccnc12"
  assigned-category: "band A"
- molecule: "COCCNC(=O)Nc1ccc2nc(-c3ccco3)c(-c3ccco3)nc2c1"
  assigned-category: "band A"
- molecule: "CCCc1nc2oc3c(OCC)ncnc3c2c2c1COC(C)(C)C2"
  assigned-category: "band B"
- molecule: "O=C1C(Cl)=C(Oc2ccccc2)C(=O)c2ccccc21"
  assigned-category: "band C"
- molecule: "CC(C)(C)Nc1c(N)c(=O)oc2ccccc12"
  assigned-category: "band A"
- molecule: "CCn1cc(C(=O)NCc2ccc3c(c2)OCO3)c2cc(OC)c(OC)cc2c1=O"
  assigned-category: "band C"
